- EXPERIMENTAL TARGET: GPR40 (Homo sapiens)
- Construct: beta-galactosidase enzyme fragment for EFC (ProLink-type tag); expressed in transfected cells
- ASSAY METHOD TEXT: β-arrestin assay (PathHunter) for GPR40 agonism
- Format: cell-based
- APPLIED CONDITIONS: PathHunter β-arrestin, dose-response
pEC50: −log10 of the molar value.
RECORDED ENDPOINT: pEC50

• CCCCCCCC/C=C\CCCCCCCC(=O)O [oleic acid, reference compound] = 4.43
• O=C(O)CCc1ccc(NCc2cccc(Oc3ccccc3)c2)cc1 [GW9508, reference compound] = 6.00

====

- EXPERIMENTAL TARGET: GPR40 (Homo sapiens, UniProt O14842)
- Construct: beta-galactosidase enzyme fragment for EFC (ProLink-type tag); expressed in transfected cells
- Sequence (O14842 whole entry, the tested form may be a part): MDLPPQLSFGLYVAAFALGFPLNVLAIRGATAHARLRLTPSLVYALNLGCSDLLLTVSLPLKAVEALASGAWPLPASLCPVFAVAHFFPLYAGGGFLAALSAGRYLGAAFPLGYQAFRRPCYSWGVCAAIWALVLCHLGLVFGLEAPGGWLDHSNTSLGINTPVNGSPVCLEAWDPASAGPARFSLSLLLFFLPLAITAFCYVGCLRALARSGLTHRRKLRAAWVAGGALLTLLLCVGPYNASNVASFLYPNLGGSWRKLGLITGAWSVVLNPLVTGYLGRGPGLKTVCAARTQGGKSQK
- ASSAY METHOD TEXT: β-arrestin assay (PathHunter) for GPR40 agonism
- Format: cell-based
- APPLIED CONDITIONS: multiple of oleic acid potency
RECORDED ENDPOINT: potency at GPR40 relative to oleic acid

- CCCCCCC[C@@H](C)/C=C(/C)C/C(C)=C/[C@H](C)CCCC(=O)O: approximately 6 fold
- CCCCCCC[C@H](C)/C=C(/C)C/C(C)=C/[C@H](C)CCCC(=O)O: approximately 6 fold
- CCCCCCC[C@@H](C)/C=C(/C)C/C(C)=C/[C@@H](C)CCCC(=O)O: approximately 6 fold

====

- EXPERIMENTAL TARGET: GPR120 (Homo sapiens, UniProt Q5NUL3)
- Sequence (Q5NUL3 1-361): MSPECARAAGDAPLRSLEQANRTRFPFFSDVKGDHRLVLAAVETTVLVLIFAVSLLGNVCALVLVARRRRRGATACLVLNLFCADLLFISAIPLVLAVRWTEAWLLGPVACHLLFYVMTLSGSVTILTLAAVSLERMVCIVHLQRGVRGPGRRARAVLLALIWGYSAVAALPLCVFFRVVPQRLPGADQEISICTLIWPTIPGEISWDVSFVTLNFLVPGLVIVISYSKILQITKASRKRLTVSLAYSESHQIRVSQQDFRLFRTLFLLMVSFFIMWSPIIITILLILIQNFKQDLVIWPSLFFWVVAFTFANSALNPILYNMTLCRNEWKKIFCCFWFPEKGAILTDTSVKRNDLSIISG
- ASSAY METHOD TEXT: β-arrestin assay (PathHunter) for GPR120 agonism
- Format: cell-based
- Design: beta-galactosidase enzyme fragment for EFC (ProLink-type tag); expressed in transfected cells
- APPLIED CONDITIONS: PathHunter β-arrestin, dose-response
RECORDED ENDPOINT: EC50

- CCCCCCC[C@@H](C)/C=C(/C)C/C(C)=C/[C@H](C)CCCC(=O)O: 1 to 7 µM
- CCCCCCC[C@H](C)/C=C(/C)C/C(C)=C/[C@H](C)CCCC(=O)O: 1 to 7 µM
- CCCCCCCC/C=C\CCCCCCCC(=O)O [oleic acid, reference compound]: 15 µM
- CCCCCCC[C@@H](C)/C=C(/C)C/C(C)=C/[C@@H](C)CCCC(=O)O: 1 to 7 µM
